pIC50 by entry:
Biological target: BTK (Homo sapiens, UniProt Q06187)
Sequence (Q06187 whole entry): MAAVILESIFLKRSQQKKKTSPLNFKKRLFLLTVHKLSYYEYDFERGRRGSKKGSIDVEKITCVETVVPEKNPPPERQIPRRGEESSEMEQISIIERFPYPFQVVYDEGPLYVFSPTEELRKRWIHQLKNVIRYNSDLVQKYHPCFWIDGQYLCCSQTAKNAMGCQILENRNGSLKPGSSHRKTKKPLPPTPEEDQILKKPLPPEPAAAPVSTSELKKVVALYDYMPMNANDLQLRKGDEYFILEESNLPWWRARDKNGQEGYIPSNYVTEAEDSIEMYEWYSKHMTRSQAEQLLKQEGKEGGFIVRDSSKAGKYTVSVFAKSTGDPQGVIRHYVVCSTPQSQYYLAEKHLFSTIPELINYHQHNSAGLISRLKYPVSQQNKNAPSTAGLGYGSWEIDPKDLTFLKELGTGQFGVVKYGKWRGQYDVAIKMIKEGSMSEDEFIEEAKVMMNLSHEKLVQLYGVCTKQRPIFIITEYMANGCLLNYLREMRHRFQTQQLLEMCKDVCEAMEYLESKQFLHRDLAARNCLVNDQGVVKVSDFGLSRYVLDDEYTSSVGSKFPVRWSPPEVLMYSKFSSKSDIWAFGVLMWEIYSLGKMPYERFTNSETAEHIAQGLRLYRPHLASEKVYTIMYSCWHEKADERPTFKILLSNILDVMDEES
pIC50: −log10 of the molar value.
Value kind: pIC50

Nc1ncnc2c1c(-c1ccc(Cl)c(O)c1F)nn2C1Cc2ccccc2C1    7.11
Nc1ncnn2c(C3Cc4ccccc4C3)cc(-c3cc(O)c(F)c(F)c3)c12    7.85
Nc1ncnc2c1c(-c1ccc(Br)c(O)c1)nn2C1CCc2ccccc21 (single isomer, unassigned) [36a]    6.72
Nc1ncnc2c1c(-c1ccc3[nH]cnc3c1)nn2C1CCc2ccccc2C1 (single isomer, unassigned) [Compound No. 19b]    5.90
Nc1ncnc2c1c(-c1cc(O)cc(Cl)c1)nn2C1Cc2ccccc2C1    6.85
C=CC(=O)N1CC(n2nc(-c3cc(O)cc(F)c3)c3c(N)ncnc32)Cc2cc(C)ccc21 (single isomer, unassigned) [31a]    8.02

---

PI3Kδ @ 0.1 μM (% Inh) by entry:
Target: PI3Kδ (Homo sapiens, UniProt O00329)
Construct: purchased Reaction Biology Corporation
Sequence (O00329 whole entry): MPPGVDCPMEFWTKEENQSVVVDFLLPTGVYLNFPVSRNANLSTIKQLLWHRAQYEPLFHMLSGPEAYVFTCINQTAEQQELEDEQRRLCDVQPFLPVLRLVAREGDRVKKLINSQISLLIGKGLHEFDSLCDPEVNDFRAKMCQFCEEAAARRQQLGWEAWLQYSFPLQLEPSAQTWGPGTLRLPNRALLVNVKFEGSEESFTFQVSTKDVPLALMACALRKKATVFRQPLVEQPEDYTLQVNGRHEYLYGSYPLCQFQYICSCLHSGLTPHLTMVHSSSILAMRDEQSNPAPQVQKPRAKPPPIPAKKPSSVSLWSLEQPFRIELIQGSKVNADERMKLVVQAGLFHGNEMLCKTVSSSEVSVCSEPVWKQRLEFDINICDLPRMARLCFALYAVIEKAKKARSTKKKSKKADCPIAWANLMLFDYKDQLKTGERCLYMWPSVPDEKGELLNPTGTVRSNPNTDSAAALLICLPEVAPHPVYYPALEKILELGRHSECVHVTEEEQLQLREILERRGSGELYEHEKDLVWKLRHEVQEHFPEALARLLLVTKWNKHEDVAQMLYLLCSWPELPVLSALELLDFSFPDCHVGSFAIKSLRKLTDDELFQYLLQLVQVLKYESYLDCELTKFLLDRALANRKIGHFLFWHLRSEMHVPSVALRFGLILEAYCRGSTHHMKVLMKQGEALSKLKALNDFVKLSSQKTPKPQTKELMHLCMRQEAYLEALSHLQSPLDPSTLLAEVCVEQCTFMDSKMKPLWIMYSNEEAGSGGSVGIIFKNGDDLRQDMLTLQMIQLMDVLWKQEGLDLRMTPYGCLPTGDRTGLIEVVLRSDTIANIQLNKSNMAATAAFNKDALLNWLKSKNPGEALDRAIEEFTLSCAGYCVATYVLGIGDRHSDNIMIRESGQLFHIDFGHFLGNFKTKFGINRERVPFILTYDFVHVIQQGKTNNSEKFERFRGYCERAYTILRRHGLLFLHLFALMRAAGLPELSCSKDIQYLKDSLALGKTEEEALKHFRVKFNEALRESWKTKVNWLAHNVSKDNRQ
Sequence (P27986 whole entry partner): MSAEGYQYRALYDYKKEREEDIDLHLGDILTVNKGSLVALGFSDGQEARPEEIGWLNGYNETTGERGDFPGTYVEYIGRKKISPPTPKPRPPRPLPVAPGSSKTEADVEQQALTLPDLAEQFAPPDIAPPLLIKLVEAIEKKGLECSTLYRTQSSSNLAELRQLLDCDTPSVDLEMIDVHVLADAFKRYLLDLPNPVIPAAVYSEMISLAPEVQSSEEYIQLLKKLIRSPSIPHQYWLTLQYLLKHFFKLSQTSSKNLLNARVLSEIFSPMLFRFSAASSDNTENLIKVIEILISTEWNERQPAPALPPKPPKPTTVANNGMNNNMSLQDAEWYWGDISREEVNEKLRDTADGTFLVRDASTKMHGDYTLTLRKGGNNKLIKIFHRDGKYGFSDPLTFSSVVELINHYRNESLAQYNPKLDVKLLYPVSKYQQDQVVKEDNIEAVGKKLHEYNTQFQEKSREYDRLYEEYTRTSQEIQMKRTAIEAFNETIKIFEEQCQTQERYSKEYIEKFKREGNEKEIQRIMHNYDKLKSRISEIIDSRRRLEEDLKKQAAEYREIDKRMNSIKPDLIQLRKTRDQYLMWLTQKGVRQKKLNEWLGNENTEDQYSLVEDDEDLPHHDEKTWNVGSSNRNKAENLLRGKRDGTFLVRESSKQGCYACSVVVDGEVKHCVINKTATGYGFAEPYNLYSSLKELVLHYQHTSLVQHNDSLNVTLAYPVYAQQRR
Assay: PI3Kδ kinase assay (HTRF, PIP3 detection)
Type: biochemical
Settings: 0.1 μM compound, 10 μM ATP
Value kind: PI3Kδ @ 0.1 μM (% Inh)

N#Cc1cc(-c2nn(C3Cc4ccccc4C3)c3ncnc(N)c23)cc(O)c1F [compound 120]    91.68
C=CC(=O)N1CC(n2nc(-c3cc(O)cc(F)c3)c3c(N)ncnc32)Cc2cc(C)ccc21 (single isomer, unassigned) [31b]    78.27
Nc1ncnc2c1c(-c1cccc(O)c1)nn2C1Cc2ccccc2C1 [Compound No. 40]    41.21
Nc1ncnc2c1c(-c1ccc(Cl)nc1)nn2C1CCc2ccccc2C1 (centres unmarked) [compound 25]    27.39
Nc1ncnc2c1c(-c1ccc(Br)c(O)c1)nn2C1CCc2ccccc21 (single isomer, unassigned) [36a]    34.17
COc1ccc(-c2nn(C3Cc4ccccc4C3)c3ncnc(N)c23)cc1N [Compound No. 73]    14.37
Nc1ncnc2c1c(-c1ccc(F)c(O)c1)nn2C1CCc2ccccc21 (centres unmarked) [compound 10]    22.39
Nc1ncnc2c1c(-c1cc(O)cc(OC(F)(F)F)c1)nn2C1Cc2ccccc2C1 [Compound No. 72]    55.46

---

Biological target: BTK (Homo sapiens, UniProt Q06187)
Construct: purchased Reaction Biology Corporation
Test: BTK kinase assay (HotSpot, 33P ATP)
Assay type: biochemical
Settings: 0.1 μM compound, 10 μM ATP
BTK @ 0.1 μM (% Inh) by entry:
Value kind: BTK @ 0.1 μM (% Inh)

Nc1ncnc2c1c(-c1cc(F)c3c(c1)NC(=O)CO3)nn2C1Cc2ccccc2C1 [compound 129]    18.99
Cn1ncc2c(-c3nn(C4Cc5ccccc5C4)c4ncnc(N)c34)cccc21 [Compound No. 98]    12.62
COc1ccc(-c2nn(C3CCc4ccccc43)c3ncnc(N)c23)cc1OC (centres unmarked) [compound 34]    23.12
Nc1ncnc2c1c(-c1ccnc(O)c1)nn2C1Cc2ccccc2C1 [Compound No. 52]    9.25
Nc1ncnc2c1c(-c1ccc(CO)cc1)nn2C1Cc2ccccc2C1 [Compound No. 55]    14.00
Nc1ncnc2c1c(-c1cc(O)cc(F)c1)nn2C1CCc2ccccc21 (centres unmarked) [compound 30]    35.16
Nc1ncnc2c1c(-c1cc(O)c(F)c(C(F)(F)F)c1)nn2C1CCc2ccccc2C1 (centres unmarked) [compound 123]    −0.78
Nc1ncnc2c1c(-c1cccc(CO)c1)nn2C1Cc2ccccc2C1 [Compound No. 54]    27.64

---

Target: PI3Kδ (Homo sapiens)
Construct: purchased Reaction Biology Corporation
Test: PI3Kδ kinase assay (HTRF, PIP3 detection)
Assay type: biochemical
Conditions: 0.01 μM compound, 10 μM ATP
Value kind: PI3Kδ @ 0.01 μM (% Inh)

Nc1ccc2c(c1)CC(n1nc(-c3cc(O)c(F)c(F)c3)c3c(N)ncnc31)C2 (stereo not drawn)    65.26
NC(=O)c1ccc(-c2nn(C3Cc4ccccc4C3)c3ncnc(N)c23)cc1O    64.38
Nc1ncnc2c1c(-c1cc(F)c3c(c1)NCCO3)nn2C1CCc2ccccc2C1 (stereo not drawn)    8.34
N#Cc1ccc(-c2nn(C3Cc4ccccc4C3)c3ncnc(N)c23)cc1O    29.77
Nc1ncnc2c1c(-c1cc(F)c3c(c1)NC(=O)CO3)nn2C1Cc2ccccc2C1    8.3
NCc1cccc(-c2nn(C3Cc4ccccc4C3)c3ncnc(N)c23)c1    −1.05
C=CC(=O)N1CC(n2nc(-c3cc(O)cc(F)c3)c3c(N)ncnc32)Cc2cc(C)ccc21 (single isomer, unassigned) [31b]    44.15
N#Cc1cc(-c2nn(C3Cc4ccccc4C3)c3ncnc(N)c23)ccc1F    24.66
Nc1ncnc2c(C3Cc4ccccc4C3)cn(-c3cc(O)c(F)c(F)c3)c12    6.28

---

pIC50 by entry:
Target: UniProt Q08881
Sequence (Q08881 whole entry): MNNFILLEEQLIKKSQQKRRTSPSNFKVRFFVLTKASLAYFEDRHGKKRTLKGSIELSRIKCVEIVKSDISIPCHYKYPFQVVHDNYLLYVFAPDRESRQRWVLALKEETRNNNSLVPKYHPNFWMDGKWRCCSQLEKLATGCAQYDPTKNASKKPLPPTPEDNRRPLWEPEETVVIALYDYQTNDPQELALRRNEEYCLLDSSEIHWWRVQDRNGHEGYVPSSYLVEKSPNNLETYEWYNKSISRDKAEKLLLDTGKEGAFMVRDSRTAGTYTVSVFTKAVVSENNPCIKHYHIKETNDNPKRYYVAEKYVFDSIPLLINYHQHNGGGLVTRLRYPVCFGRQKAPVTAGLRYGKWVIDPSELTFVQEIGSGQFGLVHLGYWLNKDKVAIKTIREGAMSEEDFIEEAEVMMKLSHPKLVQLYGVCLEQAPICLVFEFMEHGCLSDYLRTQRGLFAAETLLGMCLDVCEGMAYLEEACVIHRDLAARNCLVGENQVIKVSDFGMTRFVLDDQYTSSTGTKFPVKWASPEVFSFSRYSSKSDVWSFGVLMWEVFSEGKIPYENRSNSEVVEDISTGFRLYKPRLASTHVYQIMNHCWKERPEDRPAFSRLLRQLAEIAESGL
pIC50: −log10 of the molar value.
Value kind: pIC50

Nc1ncnc2c1c(-c1cc(O)cc(F)c1)nn2C1Cc2ccccc2C1    4.33
Nc1ncnc2c1c(-c1ccc(F)c(O)c1)nn2C1CCc2ccccc2C1 (single isomer, unassigned) [Compound No. 26b]    4.29

---

CD69 @ 100 nM (% Inh) by entry:
Test system: CD69+B220+ cells
Experiment: B cell activation assay (IgD-stimulated splenocytes, CD69+B220+ cells by FACS)
Type: cell-based
Details: 100 nM compound, mouse splenocytes, IgD 3 μg/mL, 4 h
Value kind: CD69 @ 100 nM (% Inh)

Nc1cc(-c2nn(C3Cc4ccccc4C3)c3ncnc(N)c23)cnc1Cl    28.78 ± 19.62 (n = 5) % Inh
COc1ccc(-c2nn(C3CCc4ccccc4C3)c3ncnc(N)c23)cc1F (single isomer, unassigned) [Compound No. 14b]    24.20 ± 12.24 (n = 6) % Inh
Nc1ncnc2c1c(-c1cc(F)c3c(c1)NC(=O)CO3)nn2C1Cc2ccccc2C1    12.5 ± 13.16 (n = 3) % Inh
Nc1ncnc2c1c(-c1cc(O)c(F)c(F)c1)nn2C1Cc2ccc(F)cc2C1 (stereo not drawn)    49.29 ± 5.74 (n = 3) % Inh
Nc1ncnc2c1c(-c1ccc(F)c(O)c1)nn2C1Cc2ccccc2C1    17.76 ± 20.69 (n = 9) % Inh
COc1cc(-c2nn(C3Cc4ccccc4C3)c3ncnc(N)c23)ccc1O    24.82 ± 9.20 (n = 3) % Inh
Nc1ncnc2c1c(-c1ccc(Cl)c(O)c1)cn2C1Cc2ccccc2C1    −19.68 ± 39.78 (n = 5) % Inh
Nc1ncnc2c1c(-c1ccc3[nH]c(O)nc3c1)nn2C1Cc2ccccc2C1    11.99 ± 7.58 (n = 3) % Inh
N#Cc1cc(-c2nn(C3Cc4ccccc4C3)c3ncnc(N)c23)cc(O)c1F    −99.28 ± 22.26 (n = 3) % Inh
Nc1cc(-c2nn(C3Cc4ccccc4C3)c3ncnc(N)c23)cc(F)c1F    10.19 ± 14.12 (n = 3) % Inh
NC(=O)c1ccc(-c2nn(C3Cc4ccccc4C3)c3ncnc(N)c23)cc1O    57.39 ± 5.05 (n = 3) % Inh
Nc1ncnc2c1c(-c1cc(O)cc(F)c1)nn2C1Cc2ccccc2C1    77.66 ± 22.65 (n = 6) % Inh
COc1cc(-c2nn(C3Cc4ccccc4C3)c3ncnc(N)c23)cc(C#N)c1OC    24.25 ± 33.84 (n = 5) % Inh
NCc1cccc(-c2nn(C3Cc4ccccc4C3)c3ncnc(N)c23)c1    6.8 ± 14.52 (n = 3) % Inh
COc1cc(-c2nn(C3Cc4ccccc4C3)c3ncnc(N)c23)ccc1C    16.42 ± 20.45 (n = 9) % Inh
N#Cc1cc(-c2cn(C3Cc4ccccc4C3)c3ncnc(N)c23)cc(O)c1F    44.51 ± 5.23 (n = 3) % Inh
Nc1ncnc2c1c(-c1ccc(Br)c(O)c1)nn2C1Cc2ccccc2C1    22.52 ± 18.41 (n = 5) % Inh
COc1ccc(-c2nn(C3CCc4ccccc4C3)c3ncnc(N)c23)cn1 (racemic)    −0.75 ± 6.93 (n = 3) % Inh

---

Molecular target: PI3Kδ (Homo sapiens)
Construct: purchased Reaction Biology Corporation
Test: PI3Kδ kinase assay (HTRF, PIP3 detection)
Type: biochemical
Conditions: 1 μM compound, 10 μM ATP
Could you mark each record YES if its PI3Kδ @ 1 μM (% Inh) falls strictly under 40 % Inh, and NO if it equals or exceeds it?

COc1cc(-c2nn(C3Cc4ccccc4C3)c3ncnc(N)c23)ccc1C(F)(F)F    NO
Nc1ncnc2c1c(/C=C/CO)nn2C1Cc2ccccc2C1 (single isomer, unassigned)    YES
Nc1cccc(-c2nn(C3Cc4ccccc4C3)c3ncnc(N)c23)c1    NO
Nc1ncnc2c1c(-c1ccc(Br)c(O)c1)nn2C1CCc2ccccc21 (stereo not shown) [36b]    NO
COc1cncc(-c2nn(C3Cc4ccccc4C3)c3ncnc(N)c23)c1    NO
NC(=O)/C=C/c1nn(C2Cc3ccccc3C2)c2ncnc(N)c12    NO
CCOc1cc(-c2nn(C3Cc4ccccc4C3)c3ncnc(N)c23)ccc1OC(F)(F)F    YES
